Reference source for all entries: patent US20220162331A1

Target Or Test System: T1, human CD73 on Calu6 cells (human, UniProt P21589 27-549)
T1 sequence (looked up): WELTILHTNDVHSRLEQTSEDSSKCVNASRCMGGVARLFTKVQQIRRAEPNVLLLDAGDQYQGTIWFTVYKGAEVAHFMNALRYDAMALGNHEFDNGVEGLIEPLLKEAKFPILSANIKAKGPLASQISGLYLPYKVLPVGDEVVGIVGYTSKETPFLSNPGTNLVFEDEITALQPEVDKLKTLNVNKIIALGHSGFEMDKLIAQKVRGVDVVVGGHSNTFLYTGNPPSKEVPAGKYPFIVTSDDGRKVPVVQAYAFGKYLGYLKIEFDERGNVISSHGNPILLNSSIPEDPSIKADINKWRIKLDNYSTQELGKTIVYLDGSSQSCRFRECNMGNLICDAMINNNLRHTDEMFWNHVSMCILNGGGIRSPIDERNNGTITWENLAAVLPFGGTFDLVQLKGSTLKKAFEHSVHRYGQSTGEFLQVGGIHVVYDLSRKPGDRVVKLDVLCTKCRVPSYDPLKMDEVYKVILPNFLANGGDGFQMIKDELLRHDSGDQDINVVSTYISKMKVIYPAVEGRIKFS
Experiment: cell-based or functional assay
Measured Metric: CD73 endocytosis ratio %, 120 minutes (%)
Your answer is read as %, so omit the unit and give the number.

Some solved entries appear below for comparison.
>>> readout_number("CD73 antibody 2D4 (antibody, V domains shown, also called Clone 2D4) VH: EVKLVESGGGLVQPGGSLKLSCATSGFTFSDYYMYWVRQTPEKRLEWVAYISNVGGSTYYPDTVKGRFTISRDNAKNTLYLQMSRLKSEDTAIYYCARGDGYYGYYFDVWGAGTTVTVSS VL: QIVLTQSPAIMSASPGEKVTMTCSASSSVSYMHWYQQKSGTSPKRWIYDTSKLASGVPARFSGSGSGTSYSLTISSMEAEDAATYYCQQWSSNPYTFGGGTKLEIK")
29.7
>>> readout_number("CD73 antibody 8A8 (antibody, V domains shown, Mouse variable regions on human IgG heavy chain constant region and human kappa constant region (chimeric IgG); also called Clone 8A8) VH: QVQFQQSGAELARPGASVKLSCKASGYIFTSYWIQWIKQRPGQGLEWIGAIYPGDGDTRYTQKFKGKATLTADKSSSTAYMQLRSLASEDSAVYYCAGFASWGQGTLLTVSA VL: DIQMTQSPSSLSASLGERVSLTCRASQDIGESLIWLQQEPDGTIKRLIYATSSLDSGVPKRFSGSRSGSDYSLSISSLESDDFVDYYCLQYSSSPYTFGGGTKLEIK")
27.3

Fill in: CD73 endocytosis ratio %, 120 minutes of CD73 antibody 22C12 (antibody, V domains shown, Mouse variable regions on human IgG heavy chain constant region and human kappa constant region (chimeric IgG); also called Clone 22C12; mAb22C12) VH: QVQFQQSGAELARPGASVKLSCKASGYTFTGYWIQWVKQRPGQGLEWIGAIYPGDDDTRYTQKFKGRATLTADTSSSTAYMQLSSLASEDSAVYYCARGNWDDWDFDVWGAGTTVTVSS VL: DIQMTQTTSSLSASLGDRVTISCRASQDISNYLNWYQQKPDGTVKLLIHYTSRLHSGVPSRFSGSGSGTDYSLTISNLEQEDIATYFCQQGDTLPWTFGGGTKLEIK is ___
11.1
